Test system: HEp-2 cells
Experiment: CC50 assay (cytopathology in HEp-2 cells)
Type: cell-based
Conditions: HEp-2 cells, 4 days, CellTiter-Glo; Table 1; read-out: RSV CC50
Observation Type: CC50 (nM)
Could you give me the number in nM? Just the number is fine.

Task: GET /values?readout=CC50&item= CCC(CC)COC(=O)[C@H](C)NP(=O)(OC[C@H]1O[C@@](C#N)(c2ccc3c(N)ncnn23)[C@H](O)[C@@H]1O)Oc1cc(C)ccc1C(C)C (single isomer, unassigned) [Example 26b]
Result: 2400

====

Assay: CC50 assay (cytopathology in HEp-2 cells)
Format: cell-based
Conditions: human
Observation Type: CC50 at 4 days (µM)
Could you give me the number in µM? Just the number is fine.

Task: GET /values?readout=CC50 at 4 days&item= CCC(CC)COC(=O)[C@H](C)N[P@](=O)(OC[C@H]1O[C@@](C#N)(c2ccc3c(N)ncnn23)[C@H](O)[C@@H]1O)Oc1ccccc1
Result: 6.08
